- assay-procedure: Clearance in Wistar rat at 20 mg/kg, po measured for 24 hrs by LC-MS/MS analysis
- Assay type: ADME, organism-based
- experimental-context: in vivo
experimental-readout: CL/F (mL/min/kg)
The response must be a number in mL/min/kg with no trailing unit.

In plain terms, COc1cc(NC(C)=O)cc(Oc2ccnc3ccc(OC)cc23)c1 has a documented CL/F of 54.7

---

- assay-procedure: Drug degradation in human plasma at 1 to 10 uM incubated for 2 hrs by LC-MS analysis
- Type: ADME, cell-free
- experimental-context: dose 1-10 µM, read-out: Drug degradation
experimental-readout: metabolised at 2 h, up to 10 µM (%)
Report the value in % with no unit label.

Recorded metabolised at 2 h, up to 10 µM (compound COc1cc(NC(C)=O)cc(Oc2ccnc3ccc(OC)cc23)c1 ): 0
